- assay overview: Solubility was determined
- Type: physicochemical
outcome measure: solubility

So, COc1ccc(/C=C\c2cc(OC)c(OC)c(OC)c2)cc1O.N ? Its solubility was ~2800 µg/mL

Where do the numbers come from? From ChEMBL document CHEMBL1129184.
